target: GlcNAc(b1-3)[GlcNAc(b1-6)]GalNAc; assay: glycan array binding signal (z-score within array); higher = stronger binding; details: glycan notation: IUPAC condensed, linker removed
This excerpt belongs to a sample that is enriched for the strongest signals.
We begin with a simple list: items and their reported glycan array binding signal (z-score).
Provide a numeric answer; units are not to be included.

Entry under review: MGL1 (Mus musculus), P49300 (protein) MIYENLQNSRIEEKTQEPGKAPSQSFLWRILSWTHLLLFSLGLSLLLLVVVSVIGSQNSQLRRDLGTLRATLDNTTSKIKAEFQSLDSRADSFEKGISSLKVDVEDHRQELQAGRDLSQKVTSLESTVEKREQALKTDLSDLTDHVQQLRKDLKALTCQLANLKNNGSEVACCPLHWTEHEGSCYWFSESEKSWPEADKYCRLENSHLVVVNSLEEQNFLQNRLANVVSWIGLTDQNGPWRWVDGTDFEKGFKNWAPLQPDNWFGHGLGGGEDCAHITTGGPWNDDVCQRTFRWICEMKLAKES . Reported glycan array binding signal (z-score)?
-0.368

Entry under review: OVGAL11 (Ovis aries), AAF64320 (protein) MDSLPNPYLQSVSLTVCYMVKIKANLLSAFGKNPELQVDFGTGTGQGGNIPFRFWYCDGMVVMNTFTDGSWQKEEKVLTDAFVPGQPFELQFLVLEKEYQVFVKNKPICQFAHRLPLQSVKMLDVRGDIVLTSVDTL . Reported glycan array binding signal (z-score)?
-0.084

Entry under review: DC-ASGPR-short (Homo sapiens) (protein) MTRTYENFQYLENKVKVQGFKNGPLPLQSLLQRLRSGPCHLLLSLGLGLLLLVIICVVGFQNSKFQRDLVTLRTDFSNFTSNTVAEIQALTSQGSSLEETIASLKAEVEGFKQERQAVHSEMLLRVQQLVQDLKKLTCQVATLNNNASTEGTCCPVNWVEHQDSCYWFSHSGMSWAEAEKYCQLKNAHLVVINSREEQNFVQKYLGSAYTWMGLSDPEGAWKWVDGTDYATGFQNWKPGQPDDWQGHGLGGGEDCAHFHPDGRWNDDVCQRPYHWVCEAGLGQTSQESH . Reported glycan array binding signal (z-score)?
-0.234
